# inhibition at 1 µM values compiled below
Target: ABHD6 (Mus musculus, UniProt Q8R2Y0)
Construct: Proteomes (mouse brain membrane fraction or cell lysates); from tissue; host or cells: mouse brain membrane fraction (or cell lysates, not specified)
Sequence (Q8R2Y0 whole entry): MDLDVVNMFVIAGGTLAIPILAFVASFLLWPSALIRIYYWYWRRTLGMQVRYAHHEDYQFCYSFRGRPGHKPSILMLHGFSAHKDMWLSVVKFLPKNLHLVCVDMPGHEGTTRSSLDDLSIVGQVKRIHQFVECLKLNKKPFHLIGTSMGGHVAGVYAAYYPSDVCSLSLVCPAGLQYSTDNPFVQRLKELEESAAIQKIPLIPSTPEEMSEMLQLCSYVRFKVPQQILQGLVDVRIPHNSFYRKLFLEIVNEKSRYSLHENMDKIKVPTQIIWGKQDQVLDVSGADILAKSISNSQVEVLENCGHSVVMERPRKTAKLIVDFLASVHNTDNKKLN
Assay: In vitro competitive activity-based protein profiling (gel-based, FP-Rh or HT-01 probe)
Type: biochemical
Settings: 1 μM inhibitor; read-out: % Inhibition at 1 μM, C = ABHD6

compound="CCN(Cc1cccc(Cl)c1)C(=O)n1cc(C#N)cn1 [Example 243]" readout_value="> 75%"
compound="O=C(N1CCN(Cc2ccccc2)CC1)n1cccn1 [Example 7]" readout_value="< 25%"
compound="O=C(c1cnn(C(=O)N2CCN(Cc3ccncc3)CC2)c1)N1CCCC1 [Example 79]" readout_value="25 to 75%"
compound="CCN(Cc1cccc(Cl)c1)C(=O)n1cc(C(F)(F)F)cn1 [Example 244]" readout_value="25 to 75%"

Query: Quick check: inhibition at 1 µM of Cc1ccccc1-c1cnn(C(=O)N2CCN(C(c3ccc(Cl)cc3)c3ccc(Cl)cc3)CC2)c1 [Example 122] ?
Response: < 25%

Query: Quick check: inhibition at 1 µM of Cc1cc(-c2ccccc2)ccc1CN1CCN(C(=O)n2cc(-c3ccccc3)cn2)CC1 [Example 65] ?
Response: > 75%

Query: Quick check: inhibition at 1 µM of N#Cc1cnn(C(=O)N2CCN(Cc3ccc(-c4ccccc4)cc3)CC2)c1 [Example 24] ?
Response: > 75%

Query: Quick check: inhibition at 1 µM of Cc1cc(-c2ccccc2)ccc1CN1CCN(C(=O)n2cc(C#N)cn2)CC1 [Example 138] ?
Response: > 75%

Query: Quick check: inhibition at 1 µM of O=C(c1cnn(C(=O)N2CCN(Cc3ccccn3)CC2)c1)N1CCOCC1 [Example 77] ?
Response: < 25%

Query: Quick check: inhibition at 1 µM of O=C(c1cnn(C(=O)N2CCN(Cc3ccccn3)CC2)c1)N1CCCC1 [Example 81] ?
Response: < 25%

Query: Quick check: inhibition at 1 µM of O=C(c1cnn(C(=O)N2CCN(Cc3ccncn3)CC2)c1)N1CCCCC1 [Example 73] ?
Response: < 25%

Query: Quick check: inhibition at 1 µM of Cc1cc(-c2ccccc2)ccc1CN1CCN(C(=O)n2cc(C(=O)N3CCOCC3)cn2)CC1 [Example 57] ?
Response: > 75%

* * *

Molecular target: PLA2G7 (Mus musculus, UniProt Q60963)
Construct: Proteomes (mouse brain membrane fraction or cell lysates); from tissue; host or cells: mouse brain membrane fraction (or cell lysates, not specified)
Sequence (Q60963 22-440): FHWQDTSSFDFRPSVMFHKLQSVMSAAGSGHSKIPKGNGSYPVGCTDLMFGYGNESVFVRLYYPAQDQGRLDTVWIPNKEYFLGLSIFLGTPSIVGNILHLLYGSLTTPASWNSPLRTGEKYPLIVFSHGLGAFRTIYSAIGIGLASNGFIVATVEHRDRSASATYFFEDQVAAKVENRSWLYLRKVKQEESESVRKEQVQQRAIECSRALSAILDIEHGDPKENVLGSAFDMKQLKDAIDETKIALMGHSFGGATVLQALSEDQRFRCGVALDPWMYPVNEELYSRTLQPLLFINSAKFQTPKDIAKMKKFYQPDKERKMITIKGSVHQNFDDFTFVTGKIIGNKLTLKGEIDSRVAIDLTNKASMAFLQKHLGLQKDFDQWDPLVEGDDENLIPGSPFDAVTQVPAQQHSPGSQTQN
Assay: In vitro competitive activity-based protein profiling (gel-based, FP-Rh or HT-01 probe)
Type: biochemical
Conditions: 1 μM inhibitor; read-out: % Inhibition at 1 μM, D = PLA2G7
quantity-measured: inhibition at 1 µM

smiles_code=CC(=O)N(C)CCN(C)C(=O)n1cc(C(F)(F)F)cn1 readout_value="< 25%"
smiles_code=CN(CCN(C)C(=O)n1cc(C(F)(F)F)cn1)C(=O)c1ccccc1 readout_value="> 75%"
smiles_code=Cc1cc(-c2ccccc2)ccc1CN1CCN(C(=O)n2cc(C(=O)N3CCCC3)cn2)CC1 readout_value="< 25%"
smiles_code=Cc1cc(N2CCOCC2)ccc1CN1CCN(C(=O)n2cc(Cl)cn2)CC1 readout_value="> 75%"

Query: Quick check: inhibition at 1 µM of Cc1cnn(C(=O)N2CCN(S(C)(=O)=O)CC2)c1 ?
Response: < 25%

Query: Quick check: inhibition at 1 µM of CC(=O)N1CCCN(C(=O)n2cc(C#N)cn2)CC1 ?
Response: < 25%

Query: Quick check: inhibition at 1 µM of Cc1cnn(C(=O)N2CCN(Cc3ccc(Oc4ccccc4)cc3)CC2)c1 ?
Response: 25 to 75%

Query: Quick check: inhibition at 1 µM of N#Cc1cnn(C(=O)N2CCN(Cc3ccc(-c4ccccc4)cc3OCc3ccccc3)CC2)c1 ?
Response: < 25%

Query: Quick check: inhibition at 1 µM of CC(C)(C)OC(=O)N1CCCN(C(=O)n2cccn2)CC1 ?
Response: < 25%

* * *

Target: MAGL (Mus musculus, UniProt O35678)
Construct: Proteomes (mouse brain membrane fraction or cell lysates); from tissue; host or cells: mouse brain membrane fraction (or cell lysates, not specified)
Experiment: In vitro competitive activity-based protein profiling (gel-based, FP-Rh or HT-01 probe)
Assay type: biochemical
Details: 10 μM inhibitor; gel-based competitive ABPP
quantity-measured: inhibition at 10 µM

smiles_code=O=C(O)c1cnn(C(=O)N2CCN(Cc3ccc(Cl)cc3)CC2)c1 quantity_measured="inhibition at 10 µM" readout_value="< 25%"

Query: Quick check: inhibition at 10 µM of O=C(c1cnn(C(=O)N2CCN(Cc3ccc(-c4ccccc4)cc3OCc3ccccc3)CC2)c1)N1CCCC1 ?
Response: > 75%

Query: Quick check: inhibition at 10 µM of O=C(c1cnn(C(=O)N2CCN(Cc3ccc(-c4ccccc4)cc3Cl)CC2)c1)N1CCCC1 ?
Response: > 75%

Query: Quick check: inhibition at 10 µM of CCN(Cc1cccc(OC)c1)C(=O)n1cc(C(F)(F)F)cn1 ?
Response: > 75%

Query: Quick check: inhibition at 10 µM of N#Cc1cnn(C(=O)N2CCCCCC2)c1 ?
Response: > 75%

Query: Quick check: inhibition at 10 µM of N#Cc1cnn(C(=O)N2CCN(Cc3ccc(C(=O)N4CCCCC4)cc3F)CC2)c1 ?
Response: > 75%

Query: Quick check: inhibition at 10 µM of N#Cc1cnn(C(=O)N2CCN(Cc3ccc(C(=O)N4CCC4)cc3F)CC2)c1 ?
Response: > 75%

* * *

# IC50 values compiled below
Molecular target: ABHD6 (Mus musculus, UniProt Q8R2Y0)
Construct: Proteomes (mouse brain membrane fraction or cell lysates); from tissue; host or cells: mouse brain membrane fraction (or cell lysates, not specified)
Assay: In vitro competitive activity-based protein profiling (gel-based, FP-Rh or HT-01 probe)
Type: biochemical
Conditions: mouse brain membrane fraction or cell lysates, 30 min preincubation at 37° C.; read-out: Mouse (IC50 value, nM) ABHD6

Below, 5 compounds whose answers are already recorded.
smiles_code=O=C(c1cnn(C(=O)N2CCN(C(c3ccc(Cl)cc3)c3ccc(Cl)cc3)CC2)c1)N1CCC1 readout_value="100 to 1000 nM"
smiles_code=N#Cc1cnn(C(=O)N2CCCCCC2)c1 readout_value="> 1000 nM"
smiles_code=CCN(Cc1ccc(OC)cc1)C(=O)n1cc(C#N)cn1 readout_value="> 1000 nM"
smiles_code=O=C(N1CCN(Cc2ccc(Cl)cc2N2CCOCC2)CC1)n1cc(Cl)cn1 readout_value="< 100 nM"
smiles_code=CCN(Cc1ccc(C)cc1)C(=O)n1cc(C(F)(F)F)cn1 readout_value="> 1000 nM"

Query: Quick check: IC50 of O=C(N1CCN(Cc2ccc(Cl)cc2)CC1)n1cc(Cl)cn1 ?
Response: < 100 nM

Query: Quick check: IC50 of Cc1ccccc1-c1cnn(C(=O)N2CCN(Cc3c(N4CCCC4)cccc3C(F)(F)F)CC2)c1 ?
Response: 100 to 1000 nM

Query: Quick check: IC50 of O=C(N1CCN(C(c2ccc(Cl)cc2)c2ccc(Cl)cc2)CC1)n1cc(F)cn1 ?
Response: > 1000 nM

Query: Quick check: IC50 of COc1ccc(N2CCN(C(=O)n3cc(C(F)(F)F)cn3)CC2)cc1 ?
Response: < 100 nM

* * *

Target: FAAH (Mus musculus, UniProt O08914)
Construct: Proteomes (mouse brain membrane fraction or cell lysates); from tissue; host or cells: mouse brain membrane fraction (or cell lysates, not specified)
Sequence (O08914 whole entry): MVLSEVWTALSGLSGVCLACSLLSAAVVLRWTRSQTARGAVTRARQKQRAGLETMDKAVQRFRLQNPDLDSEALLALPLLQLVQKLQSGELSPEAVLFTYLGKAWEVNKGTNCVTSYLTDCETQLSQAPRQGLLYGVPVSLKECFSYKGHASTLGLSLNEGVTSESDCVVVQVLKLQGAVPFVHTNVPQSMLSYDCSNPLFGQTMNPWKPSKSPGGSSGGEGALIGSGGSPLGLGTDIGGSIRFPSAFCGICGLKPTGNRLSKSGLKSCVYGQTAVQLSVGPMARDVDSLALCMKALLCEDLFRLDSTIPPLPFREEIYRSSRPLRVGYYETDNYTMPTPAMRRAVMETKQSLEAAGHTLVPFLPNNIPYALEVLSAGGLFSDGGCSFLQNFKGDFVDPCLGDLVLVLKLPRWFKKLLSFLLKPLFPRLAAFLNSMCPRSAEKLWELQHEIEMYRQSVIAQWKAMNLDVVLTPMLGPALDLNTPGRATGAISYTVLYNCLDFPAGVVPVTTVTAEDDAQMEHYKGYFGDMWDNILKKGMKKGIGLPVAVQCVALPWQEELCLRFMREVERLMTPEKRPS
Assay: In vitro competitive activity-based protein profiling (gel-based, FP-Rh or HT-01 probe)
Assay type: biochemical
Settings: 1 μM inhibitor; read-out: % Inhibition at 1 μM, B = FAAH
quantity-measured: inhibition at 1 µM

Below, 5 compounds whose answers are already recorded.
smiles_code=O=C(N1CCN(Cc2ccc(-c3ccccc3)cc2)CC1)n1cccn1 readout_value="< 25%"
smiles_code=O=C(c1cnn(C(=O)N2CCN(Cc3nccs3)CC2)c1)N1CCCC1 readout_value="< 25%"
smiles_code=N#Cc1cnn(C(=O)N2CCCC2)c1 readout_value="> 75%"
smiles_code=N#Cc1cnn(C(=O)N2CCN(Cc3ccc(-c4ccccc4)cc3OCc3ccccc3)CC2)c1 readout_value="> 75%"
smiles_code=CN1CCN(C(=O)n2cc(C(F)(F)F)cn2)CC1 readout_value="> 75%"

Let's switch to this compound now.
Query: Quick check: inhibition at 1 µM of O=C(N1CCN(Cc2c(N3CCCC3)cccc2C(F)(F)F)CC1)n1cc(C(F)(F)F)cn1 ?
Response: < 25%

* * *

Biological target: MAGL (Mus musculus, UniProt O35678)
Construct: Proteomes (mouse brain membrane fraction or cell lysates); from tissue; host or cells: mouse brain membrane fraction (or cell lysates, not specified)
Sequence (O35678 1-303): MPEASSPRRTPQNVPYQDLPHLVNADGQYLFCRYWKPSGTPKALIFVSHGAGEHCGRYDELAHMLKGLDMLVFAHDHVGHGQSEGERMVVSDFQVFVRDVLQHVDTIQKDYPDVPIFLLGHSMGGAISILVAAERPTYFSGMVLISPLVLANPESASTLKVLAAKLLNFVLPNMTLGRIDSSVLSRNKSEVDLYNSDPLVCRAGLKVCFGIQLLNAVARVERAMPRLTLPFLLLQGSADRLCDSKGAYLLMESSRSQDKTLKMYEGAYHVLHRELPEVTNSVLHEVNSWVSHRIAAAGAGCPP
Experiment: In vitro competitive activity-based protein profiling (gel-based, FP-Rh or HT-01 probe)
Format: biochemical
Conditions: mouse brain membrane fraction or cell lysates, 30 min preincubation at 37° C.; read-out: Mouse (IC50 value, nM) MAGL
# IC50 values compiled below

smiles_code=O=C(N1CCN(c2ccccc2Cl)CC1)n1cc(C(F)(F)F)cn1 readout_value="< 100 nM"
smiles_code=CCN(Cc1cccc(C)c1)C(=O)n1cc(C(F)(F)F)cn1 readout_value="100 to 1000 nM"
smiles_code=O=C(NC1CC1)c1cnn(C(=O)N2CCN(C(c3ccc(Cl)cc3)c3ccc(Cl)cc3)CC2)c1 readout_value="100 to 1000 nM"
smiles_code=O=C(N1CCN(c2ccc(N3CCCC3)cc2)CC1)n1cc(C(F)(F)F)cn1 readout_value="< 100 nM"
smiles_code=CCN(Cc1ccc(OC)cc1)C(=O)n1cc(C#N)cn1 readout_value="100 to 1000 nM"

Query: Quick check: IC50 of CCN(Cc1ccc(N2CCOCC2)cc1)C(=O)n1cc(C#N)cn1 ?
Response: 100 to 1000 nM

Query: Quick check: IC50 of O=C(c1ccccc1)N1CCCN(C(=O)n2cc(C(F)(F)F)cn2)CC1 ?
Response: > 1000 nM

Query: Quick check: IC50 of O=C(N1CCN(Cc2c(N3CCCC3)cccc2C(F)(F)F)CC1)n1cc(C(F)(F)F)cn1 ?
Response: < 100 nM

Query: Quick check: IC50 of CCN(Cc1ccc(C)cc1)C(=O)n1cc(C#N)cn1 ?
Response: 100 to 1000 nM

Query: Quick check: IC50 of O=C(N1CCN(C(c2ccc(Cl)cc2)c2ccc(Cl)cc2)CC1)n1cccn1 ?
Response: < 100 nM

Query: Quick check: IC50 of CCN(Cc1cccc(N2CCOCC2)c1)C(=O)n1cc(Cl)cn1 ?
Response: > 1000 nM

Query: Quick check: IC50 of CCN(Cc1ccc(C)cc1)C(=O)n1cc(Cl)cn1 ?
Response: > 1000 nM

Query: Quick check: IC50 of CCN(Cc1cccc(N2CCOCC2)c1)C(=O)n1cc(C(F)(F)F)cn1 ?
Response: 100 to 1000 nM

Query: Quick check: IC50 of CCN(Cc1ccc(Cl)cc1)C(=O)n1cc(Cl)cn1 ?
Response: > 1000 nM

Query: Quick check: IC50 of CN(Cc1cccc(-c2ccncc2)c1)C(=O)n1cc(Cl)cn1 ?
Response: < 100 nM
